For each entry below, report its TGI value.
# System: MDA-N
# testMethodNotes: NCI tumour cell line growth inhibition, 48 h

Recorded results for 3 compounds are shown here.
compound: CC(C)=CCCC(C)CCOS(=O)C(F)(F)F (centres undefined)
TGI: 14 µM

compound: C=CCc1c(O)c2nsnc2c2nsnc12
TGI: > 10 µM

compound: COc1cccc(C2SC(N)=Nc3c2c(C)nn3C(=O)Cc2ccccc2)c1 (centres undefined)
TGI: > 100 µM

Below are some compounds; for each one, tell me its TGI.
1. COc1c(C(=O)NCCN(CCNC(=O)c2cccc(-c3cccc(C(=O)N(C)C)c3OC)c2OC)CCNC(=O)c2cccc(-c3cccc(C(=O)N(C)C)c3OC)c2OC)cccc1-c1cccc(C(=O)N(C)C)c1OC
2. COc1cccc(/C=C2\S/C(=N/Nc3nc(C)c(C)s3)NC2=O)c1O
3. CCCSc1ccc2[nH]c(N3C(=O)/C(=C/c4ccc(SC)cc4)N=C3c3ccccc3)cc2c1
4. Cc1ccc2c(=O)cc(-c3ccc4ccccc4c3)[nH]c2n1
5. CCOC(=O)c1c(NC(=S)Nc2ccc(Cl)cc2)sc2c1CCN(C)C2
6. N[C@@H]1CCN(c2c(F)cc3c(=O)c(C(=O)O)cn4c3c2Oc2cc3c(ccc5ccccc53)cc2-4)C1

37.9 µM
> 100 µM
17.5 µM
4.69 µM
> 100 µM
> 100 µM

====

# Test system: SK-OV-3 ovarian
# testMethodNotes: NCI tumour cell line growth inhibition, 48 h
measuredMetric: TGI

compound: O=C1O/C(=C/c2ccccc2)C(c2ccccc2)=C1O
testSystem: SK-OV-3 ovarian
measuredMetric: TGI
observed: > 100 µM

Below are some compounds; for each one, tell me its TGI.
1. COc1ccccc1C(O)[C@@H]1C[C@@H]2[C@H]3CC[C@@](C)([C@@H]2O1)C3(C)C (stereo partly drawn)
2. CC(=O)OCC(=O)OC[C@H](OCc1ccccc1)[C@@H]1[C@H](OC(C)=O)C(=O)N1Cc1ccccc1
3. COc1cc(/C=N/N=C(\N)NO)c(Cl)cc1O
4. CCCCCCCC/C=C/CCCCCCCC1=NC(C)(C)CN1CCO
5. Nc1ncnc2c1ncn2C1CCC(CP(=O)(O)O)C1 (stereo not drawn)
6. CSc1nc2c(c(=O)n1C)N=C(c1ccc([N+](=O)[O-])cc1)CC(c1ccccc1)N2 (stereo not drawn)
7. Cc1cn(Cc2ccc(C34CC5CC(CC(C5)C3)C4)c(O)c2)c(=O)[nH]c1=O

87.1 µM
> 100 µM
> 100 µM
24.2 µM
> 100 µM
> 100 µM
44.3 µM

Below are some compounds; for each one, tell me its TGI.
1. Cc1cc(C)c(-c2noc(-c3ccc(Cl)cc3)c2C2=NCCCN2)c(C)c1
2. COc1cc(C(=O)c2cnc(-c3cccc4[nH]ccc34)[nH]2)cc(OC)c1OC
3. C/C=C1/CC(C)C(C)(O)C(=O)OCC2C(O)CN3CCC(OC1=O)C23 (stereo not drawn)

["> 100 µM", "< 0.01 µM", "> 100 µM"]

Below are some compounds; for each one, tell me its TGI.
1. CCc1nc2ccc(N=Nc3c(O)ccc4ccccc34)cc2[nH]1
2. COC(=O)c1cc2c3ccccc3n3c2c(n1)-c1[nH]c2ccccc2c(=O)c1C3
3. CSCSCC(CO)NC(=O)/C(C)=C\c1c(C)[nH]c(=O)[nH]c1=O (stereo not drawn)

> 62 µM
> 100 µM
> 250 µM

Below are some compounds; for each one, tell me its TGI.
1. Cc1cc(-c2cc(O)ccc2Cl)cc2nnc(Nc3ccc(OCCN4CCCC4)cc3)nc12
2. N/N=C(/Cc1nc2ccc(C(=O)c3ccccc3)cc2[nH]c1=O)C(=O)Nc1ccc([N+](=O)[O-])cc1[N+](=O)[O-]
3. O=C1CCc2ccc(O)c(c2)Oc2ccc(cc2)C(Sc2ccccc2)CCO1 (stereo not drawn)
4. NS(=O)(=O)c1cc(C(=O)O)c(O)c2ccccc12
5. O=Cc1cc(C(=O)OCc2ccccc2)n(S(=O)(=O)c2ccccc2)c1
6. CCOC(=O)NC(Nc1ccc(F)cc1)(C(=O)OCC)C(F)(F)F (stereo not drawn)
7. COc1cccc(Nc2nc3ccccc3c3occc23)c1

1. 2.8 µM
2. > 100 µM
3. > 100 µM
4. > 100 µM
5. 66.3 µM
6. > 100 µM
7. 22.7 µM
